tgt: T1, Ac-IKPD-AMC
T1 chain: XIKPDX
assayOverview: Michaelis-Menten kinetics of fluorogenic tetrapeptide hydrolysis
Please go through the items and note down their Km.

Ask: # Km lookup, item rat granzyme B N218A/R192E (protein) IIGGHEAKPHSRPYMAYLQIMDEYSGSKKCGGFLIREDFVLTAAHCSGSKINVTLGAHNIKEQEKMQQIIPVVKIIPHPAYNSKTISNDIMLLKLKSKAKRSSAVKPLNLPRRNVKVKPGDVCYVAGWGKLGPMGKYSDTLQEVELTVQEDQKCESYLKNYFDKANEICAGDPKIKRASFEGDSGGPLVCKKVAAGIVSYGQADGSTPRAFTKVSTFLSWIKKTMKKS
Reply: > 2000 µM

Ask: Another: rat granzyme B N218A/R192A (protein) IIGGHEAKPHSRPYMAYLQIMDEYSGSKKCGGFLIREDFVLTAAHCSGSKINVTLGAHNIKEQEKMQQIIPVVKIIPHPAYNSKTISNDIMLLKLKSKAKRSSAVKPLNLPRRNVKVKPGDVCYVAGWGKLGPMGKYSDTLQEVELTVQEDQKCESYLKNYFDKANEICAGDPKIKRASFAGDSGGPLVCKKVAAGIVSYGQADGSTPRAFTKVSTFLSWIKKTMKKS
Reply: > 2000 µM

Ask: Another: rat granzyme B N218A (protein) IIGGHEAKPHSRPYMAYLQIMDEYSGSKKCGGFLIREDFVLTAAHCSGSKINVTLGAHNIKEQEKMQQIIPVVKIIPHPAYNSKTISNDIMLLKLKSKAKRSSAVKPLNLPRRNVKVKPGDVCYVAGWGKLGPMGKYSDTLQEVELTVQEDQKCESYLKNYFDKANEICAGDPKIKRASFRGDSGGPLVCKKVAAGIVSYGQADGSTPRAFTKVSTFLSWIKKTMKKS
Reply: 1800 µM
